Answer each item with its documented efficacy in %.
Tested on: green peach aphid (Myzus persicae)
Experimental Protocol: Myzus persicae spray test (MYZUPE), Chinese cabbage leaf discs
Assay type: in vivo
Settings: application rate 500 g/ha, after 6 days
Give a bare numeral; the unit % is implied.

// query Any idea what its efficacy in % is? The compound is Cc1cc(F)c(-n2nnc3nn(-c4cccnc4)cc3c2=O)cc1SCC(F)(F)F
// result 100

// query Any idea what its efficacy in % is? The compound is Cc1cc(C)c(-n2cnc3nn(-c4cccnc4)cc3c2=O)cc1SCC(F)(F)F
// result 90

// query Any idea what its efficacy in % is? The compound is O=c1c2cn(-c3cccnc3)nc2ncn1-c1cc(SCC(F)(F)F)c(Cl)cc1Cl
// result 90

// query Any idea what its efficacy in % is? The compound is Cc1cc(F)c(-n2cnc3nn(-c4ccc[n+]([O-])c4)cc3c2=O)cc1[S+]([O-])CC(F)(F)F (centres unmarked)
// result 100

// query Any idea what its efficacy in % is? The compound is O=c1c2cn(-c3cccnc3)nc2ncn1-c1cc([S+]([O-])CC(F)(F)F)c(Cl)cc1Cl (centres unmarked)
// result 90

// query Any idea what its efficacy in % is? The compound is Cc1cc(F)c(-n2nnc3nn(-c4cccnc4)cc3c2=O)cc1[S+]([O-])CC(F)(F)F (centres unmarked)
// result 100

// query Any idea what its efficacy in % is? The compound is Cc1ccc(-n2cnc3nn(-c4cccnc4)cc3c2=O)cc1[S+]([O-])CC(F)(F)F (centres unmarked)
// result 90

// query Any idea what its efficacy in % is? The compound is O=c1c2cn(-c3cccnc3)nc2ncn1-c1cccc(SCC(F)(F)F)c1
// result 90

----------
Answer each item with its documented logP [b].
Experimental Protocol: log P by HPLC on reversed-phase C18 columns, OECD Guideline 117
Type: physicochemical
Settings: neutral range, pH 7.8; NMR peak list table
Give your answer as a number; write no unit.

// query Any idea what its logP [b] is? The molecule is O=c1c2cn(-c3cccnc3)nc2ncn1-c1cccc(SCC2CC2)c1 [I-1-11]
// result 2.41

// query Any idea what its logP [b] is? The molecule is Cc1cc(C)c(-n2cnc3nn(-c4cccnc4)cc3c2=O)cc1SCC(F)(F)F [I-1-17]
// result 2.72

// query Any idea what its logP [b] is? The molecule is Cc1cc(C)c([S+]([O-])CC(F)(F)F)cc1-n1cnc2nn(-c3cccnc3)cc2c1=O (centres unmarked) [I-1-20]
// result 1.79

// query Any idea what its logP [b] is? The molecule is O=c1c2cn(-c3ccc[n+]([O-])c3)nc2ncn1-c1cc([S+]([O-])CC(F)(F)F)c(Cl)cc1Cl (centres unmarked) [I-1-15]
// result 1.67

// query Any idea what its logP [b] is? The molecule is Cc1cc(F)c(-n2c(C)nc3nn(-c4cccnc4)cc3c2=O)cc1SCC(F)(F)F [I-1-22]
// result 2.69

// query Any idea what its logP [b] is? The molecule is O=c1c2cn(-c3cccnc3)nc2ncn1-c1cc([S+]([O-])CC(F)(F)F)c(Cl)cc1Cl (centres unmarked) [I-1-19]
// result 2.09

// query Any idea what its logP [b] is? The molecule is O=c1c2cn(-c3cccnc3)nc2ncn1-c1cc([S+]([O-])CC(F)(F)F)c(Cl)cc1F (centres unmarked) [I-1-18]
// result 1.94

// query Any idea what its logP [b] is? The molecule is O=c1c2cn(-c3cccnc3)nc2ncn1-c1cccc([S+]([O-])CC2CC2)c1 (centres unmarked) [I-1-21]
// result 1.32

----------
Tested on: green peach aphid (Myzus persicae)
Experimental Protocol: Myzus persicae spray test (MYZUPE), Chinese cabbage leaf discs
Assay type: in vivo
Settings: application rate 500 g/ha, after 6 days
Parameter: efficacy in % (%)
Give a bare numeral; the unit % is implied.

// query Any idea what its efficacy in % is? The compound is O=c1c2cn(-c3cccnc3)nc2ncn1-c1cccc([S+]([O-])CC(F)(F)F)c1 (centres unmarked) [I-1-16]
// result 90

// query Any idea what its efficacy in % is? The compound is Cc1cc(F)c(-n2cnc3nn(-c4cccnc4)cc3c2=O)cc1[S+]([O-])CC(F)(F)F (centres unmarked) [I-1-4]
// result 100

// query Any idea what its efficacy in % is? The compound is O=c1c2cn(-c3cccnc3)nc2ncn1-c1cccc(SCC2CC2)c1 [I-1-11]
// result 100

// query Any idea what its efficacy in % is? The compound is Cc1ccc(-n2cnc3nn(-c4cccnc4)cc3c2=O)cc1SCC(F)(F)F [I-1-7]
// result 90

// query Any idea what its efficacy in % is? The compound is Cc1cc(F)c(-n2c(C)nc3nn(-c4cccnc4)cc3c2=O)cc1SCC(F)(F)F [I-1-22]
// result 90

// query Any idea what its efficacy in % is? The compound is O=c1c2cn(-c3cccnc3)nc2ncn1-c1cc([S+]([O-])CC(F)(F)F)ccc1F (centres unmarked) [I-1-10]
// result 100

// query Any idea what its efficacy in % is? The compound is CSc1ccccc1-n1cnc2nn(-c3cccnc3)cc2c1=O [I-2-23]
// result 90

// query Any idea what its efficacy in % is? The compound is O=c1c2cn(-c3ccc[n+]([O-])c3)nc2ncn1-c1cc([S+]([O-])CC(F)(F)F)c(Cl)cc1Cl (centres unmarked) [I-1-15]
// result 90

// query Any idea what its efficacy in % is? The compound is CSc1cccc(-n2cnc3nn(-c4cccnc4)cc3c2=O)c1 [I-1-6]
// result 90

// query Any idea what its efficacy in % is? The compound is O=c1c2cn(-c3cccnc3)nc2ncn1-c1cc([S+]([O-])CC(F)(F)F)c(Cl)cc1F (centres unmarked) [I-1-18]
// result 90

// query Any idea what its efficacy in % is? The compound is O=c1c2cn(-c3cccnc3)nc2ncn1-c1cccc([S+]([O-])CC2CC2)c1 (centres unmarked) [I-1-21]
// result 90

----------
Experimental Protocol: log P by HPLC on reversed-phase C18 columns, OECD Guideline 117
Type: physicochemical
Settings: reversed-phase C18 HPLC column; acidic range, pH 2.7, 0.1% aqueous formic acid/acetonitrile; read-out: log P[a]
Experimental: The log P values were determined in accordance with OECD Guideline 117 (EC Directive 92/69/EEC) by HPLC (high-performance liquid chromatography) using reversed-phase (RP) columns (C18), by the following methods: [a] […] Calibration is effected with unbranched alkan-2-ones (having 3 to 16 carbon atoms) with known log P values (log P values determined on the basis of the retention times by linear interpolation between two successive alkanones).
Each record is given yes if its reported chromatographic logP is strictly below 2. Records at or above 2 are given no.

// query Quick check: chromatographic logP of Cc1cc(F)c(-n2cnc3nn(-c4cccnc4)cc3c2=O)cc1SCC(F)(F)F under 2?
// result no

// query Quick check: chromatographic logP of Cc1cc(F)c(-n2nnc3nn(-c4cccnc4)cc3c2=O)cc1[S+]([O-])CC(F)(F)F (stereo not drawn) under 2?
// result no

// query Quick check: chromatographic logP of Cc1cc(F)c(-n2nnc3nn(-c4cccnc4)cc3c2=O)cc1SCC(F)(F)F under 2?
// result no

// query Quick check: chromatographic logP of Cc1cc(F)c(NC(=O)c2cn(-c3cccnc3)nc2N)cc1SCC(F)(F)F under 2?
// result no

// query Quick check: chromatographic logP of Cc1cc(F)c(-n2cnc3nn(-c4ccc[n+]([O-])c4)cc3c2=O)cc1[S+]([O-])CC(F)(F)F (stereo not drawn) under 2?
// result yes

// query Quick check: chromatographic logP of Cc1cc(F)c(-n2cnc3nn(-c4cccnc4)cc3c2=O)cc1[S+]([O-])CC(F)(F)F (stereo not drawn) under 2?
// result yes

----------
Experimental Protocol: log P by HPLC on reversed-phase C18 columns, OECD Guideline 117
Format: physicochemical
Settings: reversed-phase C18 HPLC column; neutral range, pH 7.8, ammonium hydrogencarbonate/acetonitrile; read-out: log P[b]
Answer each item with its documented chromatographic logP.
Give your answer as a number; write no unit.

// query Any idea what its chromatographic logP is? The compound is Cc1cc(F)c(-n2cnc3nn(-c4ccc[n+]([O-])c4)cc3c2=O)cc1[S+]([O-])CC(F)(F)F (stereo not drawn)
// result 1.33

// query Any idea what its chromatographic logP is? The compound is Cc1cc(F)c(NC(=O)c2cn(-c3cccnc3)nc2N)cc1SCC(F)(F)F
// result 2.63

// query Any idea what its chromatographic logP is? The compound is Cc1cc(F)c(-n2nnc3nn(-c4cccnc4)cc3c2=O)cc1SCC(F)(F)F
// result 3.14

// query Any idea what its chromatographic logP is? The compound is Cc1cc(F)c(-n2cnc3nn(-c4cccnc4)cc3c2=O)cc1SCC(F)(F)F
// result 2.63

// query Any idea what its chromatographic logP is? The compound is Cc1cc(F)c(-n2nnc3nn(-c4cccnc4)cc3c2=O)cc1[S+]([O-])CC(F)(F)F (stereo not drawn)
// result 2.19

// query Any idea what its chromatographic logP is? The compound is Cc1cc(F)c(-n2cnc3nn(-c4cccnc4)cc3c2=O)cc1[S+]([O-])CC(F)(F)F (stereo not drawn)
// result 1.78
